These data points were gathered from patent US11279681B2.

Examples of compounds with documented pIC50 follow.
# measured_on: HDAC6 (Homo sapiens, UniProt Q9UBN7)
# measurement_protocol: In vitro histone deacetylase assay: enzymatic HDAC6 electrophoretic mobility shift assay
# condition_set: full length human recombinant HDAC6, 1 nM enzyme, 2 μM peptide substrate RHKK(Ac)-NH2, 25° C.; read-out: Inhibitory Concentration (IC50) Values for Representative Compounds against HDAC6, Activity Range
pIC50: −log10 of the molar value.

Record excerpt, results attached:
CC(C)[C@H]1COc2cc(C(=O)NO)ccc2CN1c1ccncc1 :: < 6.30
COC[C@H]1COc2cc(C(=O)NO)ccc2CN1C :: ≥ 7.00
O=C(NO)c1ccc2c(c1)OCCN(c1nc3ccccc3n1CC1CCCCC1)C2 :: 6.30 to 7.00
O=C1CN(Cc2ccc3ccccc3c2)Cc2cc(C(=O)NO)ccc2N1 :: ≥ 7.00
O=C1CN(Cc2ccc(Oc3ccccc3)cc2)Cc2cc(C(=O)NO)ccc2N1 :: ≥ 7.00
O=C(NO)c1ccc2c(c1)OCCN(C(=O)OC1CCCCC1)C2 :: ≥ 7.00
O=C1CN(Cc2cn3ccccc3n2)Cc2cc(C(=O)NO)ccc2N1 :: ≥ 7.00
COCCN1CCOc2cc(C(=O)NO)ccc2C1 :: 6.30 to 7.00

*Q* Give pIC50 (HDAC6 (Homo sapiens, UniProt Q9UBN7)) of the following compound: C[C@H]1COc2cc(C(=O)NO)ccc2CN1c1ccccn1
*A* ≥ 7.00

*Q* Then what about the compound C[C@H]1COc2cc(C(=O)NO)ccc2CN1C(=O)N(C)c1ccccc1 ?
*A* 6.30 to 7.00

*Q* Then what about the compound COCCCN1Cc2ccc(C(=O)NO)cc2OC[C@@H]1C ?
*A* 6.30 to 7.00

*Q* Then what about the compound C[C@H]1COc2cc(C(=O)NO)ccc2CN1c1cccc(F)c1 ?
*A* ≥ 7.00

*Q* Then what about the compound O=C1CN(C(=O)N2CCCCC2)Cc2cc(C(=O)NO)ccc2N1 ?
*A* 6.30 to 7.00

*Q* Then what about the compound C[C@H]1COc2cc(C(=O)NO)ccc2CN1C(=O)Nc1ccccn1 ?
*A* ≥ 7.00

*Q* Then what about the compound O=C1CN(Cc2cc(Cl)cc(Cl)c2)Cc2cc(C(=O)NO)ccc2N1 ?
*A* ≥ 7.00

*Q* Then what about the compound COc1ccc(CN2Cc3ccc(C(=O)NO)cc3O[C@H](C)C2)cc1 ?
*A* 6.30 to 7.00

*Q* Then what about the compound C[C@H]1COc2cc(C(=O)NO)ccc2CN1C(=O)Nc1cccnc1 ?
*A* ≥ 7.00

*Q* Then what about the compound C[C@H]1COc2cc(C(=O)NO)ccc2CN1C(=O)Nc1ccncc1 ?
*A* ≥ 7.00

*Q* Then what about the compound O=C1CN(Cc2ccccn2)Cc2cc(C(=O)NO)ccc2N1 ?
*A* < 6.30

*Q* Then what about the compound O=C1CN(Cc2ccccc2)Cc2cc(C(=O)NO)ccc2N1 ?
*A* 6.30 to 7.00

*Q* Then what about the compound O=C1CN(Cc2nc3ccccc3[nH]2)Cc2ccc(C(=O)NO)cc2N1 ?
*A* 6.30 to 7.00

*Q* Then what about the compound C[C@H]1CNCc2ccc(C(=O)NO)cc2O1 ?
*A* 6.30 to 7.00

*Q* Then what about the compound COc1ccc(CN2CCN(C)c3ccc(C(=O)NO)cc3C2)cc1 ?
*A* < 6.30

----------
# measured_on: HDAC6 (Homo sapiens, UniProt Q9UBN7)
# measurement_protocol: In vitro histone deacetylase assay: enzymatic HDAC6 electrophoretic mobility shift assay
# condition_set: full length human recombinant HDAC6, 1 nM enzyme, 2 μM peptide substrate RHKK(Ac)-NH2, 25° C.; read-out: Inhibitory Concentration (IC50) Values for Representative Compounds against HDAC6, Activity Range
Examples of molecules with documented IC50 follow.

COC1CCN(C(=O)N2CCOc3cc(C(=O)NO)ccc3C2)CC1 :: 0.1 to 0.5 µM
C[C@H]1COc2cc(C(=O)NO)ccc2CN1c1ccc(C(F)(F)F)cc1 :: 0.1 to 0.5 µM

*Q* IC50 for O=C1CN(Cc2ccccc2Cl)Cc2cc(C(=O)NO)ccc2N1 ?
*A* 0.1 to 0.5 µM

*Q* Then what about the molecule COc1ccc(S(=O)(=O)N2Cc3ccc(C(=O)NO)cc3OC[C@H]2C)cc1 ?
*A* > 0.5 µM

*Q* Then what about the molecule COc1ccc(S(=O)(=O)N2Cc3ccc(C(=O)NO)cc3O[C@H](C)C2)cc1 ?
*A* 0.1 to 0.5 µM

*Q* Then what about the molecule COc1ccc(CN2CCOc3ccc(C(=O)NO)cc3C2=O)cc1 ?
*A* > 0.5 µM

----------
Examples of compounds with documented pIC50 follow.
# measured_on: UniProt:Q9UBN7
# measurement_protocol: In vitro histone deacetylase assay: enzymatic HDAC6 electrophoretic mobility shift assay
# condition_set: full length human recombinant HDAC6, 1 nM enzyme, 2 μM peptide substrate RHKK(Ac)-NH2, 25° C.; read-out: Inhibitory Concentration (IC50) Values for Representative Compounds against HDAC6, Activity Range
pIC50: −log10 of the molar value.

O=C(NO)c1ccc2c(c1)OCCN(C(=O)N1CCOCC1)C2 :: 6.30 to 7.00
CC(C)[C@H]1COc2cc(C(=O)NO)ccc2CN1 :: ≥ 7.00

*Q* pIC50 for COc1ccc(CN2Cc3ccc(C(=O)NO)cc3OC[C@H]2C)cc1 ?
*A* ≥ 7.00

----------
# measured_on: HDAC6 (Homo sapiens, UniProt Q9UBN7)
# measurement_protocol: In vitro histone deacetylase assay: enzymatic HDAC6 electrophoretic mobility shift assay
# condition_set: full length human recombinant HDAC6, 1 nM enzyme, 2 μM peptide substrate RHKK(Ac)-NH2, 25° C.; read-out: Inhibitory Concentration (IC50) Values for Representative Compounds against HDAC6, Activity Range
# Protocol: The enzymatic HDAC6 assay was performed using electrophoretic mobility shift assay. […] The terminated assay plates were analyzed on LabChip® 3000 microfluidic electrophoresis instrument (Perkin Elmer/Caliper Life Sciences). The fluorescence intensity of the electrophoretically separated de-acetylated product and substrate peptide was measured. […] Percent inhibition (Pinh) is determined using the following equation: […]
pIC50: −log10 of the molar value.
outcome_measure: pIC50

CN(C(=O)N1CCOc2cc(C(=O)NO)ccc2C1)c1ccccc1 :: < 6.30
COc1ccc(CN2CCOc3cc(C(=O)NO)ccc3C2=O)cc1 :: 6.30 to 7.00
COc1ccc(CN2CCOc3nc(C(=O)NO)ccc3C2)cc1 :: < 6.30
CC1(C)COc2cc(C(=O)NO)ccc2CN1 :: ≥ 7.00
O=C(NO)c1ccc2c(c1)OCCN(c1nc3ccccc3[nH]1)C2 :: ≥ 7.00

*Q* pIC50 for C[C@H]1COc2cc(C(=O)NO)ccc2CN1c1ccccc1Cl ?
*A* ≥ 7.00

*Q* Then what about the molecule CN1CCOc2cc(C(=O)NO)ccc2C1 ?
*A* 6.30 to 7.00

*Q* Then what about the molecule CC(C)(C)Oc1ccc(CN2CC(=O)Nc3ccc(C(=O)NO)cc3C2)cc1 ?
*A* 6.30 to 7.00

*Q* Then what about the molecule CC(C)N1Cc2ccc(C(=O)NO)cc2OC[C@@H]1C ?
*A* < 6.30

*Q* Then what about the molecule C[C@H]1COc2cc(C(=O)NO)ccc2CN1C1COC1 ?
*A* < 6.30

*Q* Then what about the molecule C[C@H]1COc2cc(C(=O)NO)ccc2CN1C(=O)NC1CCOCC1 ?
*A* ≥ 7.00

*Q* Then what about the molecule CCN1Cc2ccc(C(=O)NO)cc2OC[C@@H]1C ?
*A* 6.30 to 7.00

----------
Examples of compounds with documented pIC50 follow.
# measured_on: HDAC6 (Homo sapiens, UniProt Q9UBN7)
# Sequence (Q9UBN7 1-1215): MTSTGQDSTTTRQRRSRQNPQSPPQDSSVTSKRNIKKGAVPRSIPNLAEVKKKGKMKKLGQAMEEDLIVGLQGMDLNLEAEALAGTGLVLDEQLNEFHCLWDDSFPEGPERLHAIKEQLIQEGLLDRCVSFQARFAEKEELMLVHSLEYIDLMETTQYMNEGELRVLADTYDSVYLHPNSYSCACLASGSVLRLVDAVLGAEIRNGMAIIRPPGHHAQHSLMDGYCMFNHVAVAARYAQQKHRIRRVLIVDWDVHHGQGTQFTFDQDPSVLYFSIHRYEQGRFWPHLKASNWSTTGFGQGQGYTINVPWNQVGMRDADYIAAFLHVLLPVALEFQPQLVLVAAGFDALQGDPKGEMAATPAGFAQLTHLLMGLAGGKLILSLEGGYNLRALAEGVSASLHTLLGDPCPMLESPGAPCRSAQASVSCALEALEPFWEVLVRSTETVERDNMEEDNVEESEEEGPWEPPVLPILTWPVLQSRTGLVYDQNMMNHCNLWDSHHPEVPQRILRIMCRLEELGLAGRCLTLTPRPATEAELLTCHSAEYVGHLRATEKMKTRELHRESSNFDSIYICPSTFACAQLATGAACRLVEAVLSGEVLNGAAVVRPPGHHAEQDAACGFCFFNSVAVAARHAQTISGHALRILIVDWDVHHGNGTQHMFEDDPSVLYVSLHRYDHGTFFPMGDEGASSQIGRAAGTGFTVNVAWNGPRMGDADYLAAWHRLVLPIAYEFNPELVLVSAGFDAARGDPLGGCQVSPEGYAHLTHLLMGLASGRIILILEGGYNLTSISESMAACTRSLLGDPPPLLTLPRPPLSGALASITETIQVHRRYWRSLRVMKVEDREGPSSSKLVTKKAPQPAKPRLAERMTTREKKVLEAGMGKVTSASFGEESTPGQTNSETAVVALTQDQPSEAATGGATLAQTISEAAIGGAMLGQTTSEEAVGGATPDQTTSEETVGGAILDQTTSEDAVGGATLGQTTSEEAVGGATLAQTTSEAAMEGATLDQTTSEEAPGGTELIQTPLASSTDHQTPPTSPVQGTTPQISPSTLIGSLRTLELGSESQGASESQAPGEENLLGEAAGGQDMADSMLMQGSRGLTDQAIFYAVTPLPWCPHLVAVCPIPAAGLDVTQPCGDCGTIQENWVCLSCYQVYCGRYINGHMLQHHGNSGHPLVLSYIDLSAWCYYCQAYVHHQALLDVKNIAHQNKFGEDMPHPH
# measurement_protocol: In vitro histone deacetylase assay: enzymatic HDAC6 electrophoretic mobility shift assay
# condition_set: full length human recombinant HDAC6, 1 nM enzyme, 2 μM peptide substrate RHKK(Ac)-NH2, 25° C.; read-out: Inhibitory Concentration (IC50) Values for Representative Compounds against HDAC6, Activity Range
pIC50: −log10 of the molar value.

Record excerpt, results attached:
COc1ccc(NC(=O)N2Cc3ccc(C(=O)NO)cc3OC[C@@H]2C(C)C)cc1 :: ≥ 7.00
C[C@H]1COc2cc(C(=O)NO)ccc2CN1C(=O)Nc1ccccc1 :: ≥ 7.00
C[C@H]1COc2cc(C(=O)NO)ccc2CN1c1ccc(F)cc1 :: ≥ 7.00
COC[C@H]1COc2cc(C(=O)NO)ccc2CN1c1ccccc1C :: ≥ 7.00
COc1ccc(NC(=O)N2Cc3ccc(C(=O)NO)cc3OC[C@@H]2C)cc1 :: ≥ 7.00

*Q* pIC50 for C[C@H]1COc2cc(C(=O)NO)ccc2CN1S(=O)(=O)c1ccc(F)cc1 ?
*A* 6.30 to 7.00

*Q* Then what about the compound COc1ccccc1N1Cc2ccc(C(=O)NO)cc2OC[C@@H]1C ?
*A* ≥ 7.00

*Q* Then what about the compound CC(C)[C@@H]1COc2cc(C(=O)NO)ccc2CN1 ?
*A* ≥ 7.00

*Q* Then what about the compound COc1ccc(CN2Cc3ccc(C(=O)NO)cc3OC[C@@H]2C)cc1 ?
*A* ≥ 7.00

*Q* Then what about the compound COc1ccc(CN2CCOc3ccc(C(=O)NO)cc3C2)nc1 ?
*A* < 6.30
